Provenance of the data: patent US20240409585A1

Test system: PE-labeled human PD-L1-Ig binding to Jurkat cell line over-expressing human PD-1 (Jurkat-PD-1) (Homo sapiens)
Construct: expressed in transfected cells; host or cells: Jurkat
Sequence (Q15116 25-288): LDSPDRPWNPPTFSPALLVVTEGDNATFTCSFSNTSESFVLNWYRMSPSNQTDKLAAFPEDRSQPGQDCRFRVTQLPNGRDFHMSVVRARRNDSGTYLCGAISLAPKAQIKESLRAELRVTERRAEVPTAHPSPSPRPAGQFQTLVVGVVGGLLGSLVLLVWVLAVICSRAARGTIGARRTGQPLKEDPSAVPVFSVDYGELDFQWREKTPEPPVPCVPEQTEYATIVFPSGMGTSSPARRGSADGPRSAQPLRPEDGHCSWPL
Measurement notes: Jurkat-PD-1 Cell Binding High-Content Screening Assay (CBA): Method 1
Stated conditions: Jurkat-hPD-1 cells, PE-labeled PD-L1-Ig 20 nM final; read-out: Jurkat HPDL1 PD1 IC50 (uM) (Method 1)
Bridge positions count the residues as written; N and C are the ends. Square brackets hold non-standard residues; d marks the D form. Peptide text beside a SMILES is read from it. Bip = N[C@@H](Cc1ccc(-c2ccccc2)cc1)C(=O)O; NMeA = CN[C@@H](C)C(=O)O; Dab = NCC[C@H](N)C(=O)O
Readout name: IC50 (µM)

[
  {
    "Molecule": "CC(C)C[C@@H]1NC(=O)[C@H](CCN)NC(=O)[C@@H](CC(C)C)NC(=O)[C@H](C)N(C)C(=O)[C@H](CCCNC(=N)N)NC(=O)[C@H](Cc2ccc(-c3ccccc3)cc2)NC(=O)[C@H](C(C)C)NC(=O)[C@H](Cc2c[nH]c3ccccc23)NC(=O)[C@H](CC(=O)O)NC(=O)[C@H](Cc2ccc(O)cc2)NC(=O)[C@H](Cc2ccccc2)NC(=O)CSC[C@@H](C(=O)N[C@@H](CO)C(N)=O)NC(=O)[C@H]([C@@H](C)O)NC(=O)[C@H](C(C)C)NC1=O [Compound 1178] ({CH2CO}-FYDWV[Bip]R[NMeA][dL][Dab]LVTCS-NH2; thioether N-14)",
    "Measured": 0.05
  }
]
